# Test system: Mus musculus
# procedure_summary: Hepatotoxicity in Kunming mouse assessed as serum ALT level at 1 g/kg by automatic biochemical analyser (reference value: 44.33 +/- 6.50 U/T)
# Format: toxicity, organism-based
# cond: in vivo, 1000 mg/kg
property: Activity (U/L)
Numeric only. Scale: U/L

Requested read-out: Activity. Entry: CCCc1nc2c(C)cc(C(=O)NC[C@H](C)c3ccccc3)cc2n1Cc1ccc(-c2ccccc2-c2nnn[nH]2)cc1
52.6

----------
# tgt: Type-1 angiotensin II receptor (Oryctolagus cuniculus)
# Sequence (P34976 whole entry): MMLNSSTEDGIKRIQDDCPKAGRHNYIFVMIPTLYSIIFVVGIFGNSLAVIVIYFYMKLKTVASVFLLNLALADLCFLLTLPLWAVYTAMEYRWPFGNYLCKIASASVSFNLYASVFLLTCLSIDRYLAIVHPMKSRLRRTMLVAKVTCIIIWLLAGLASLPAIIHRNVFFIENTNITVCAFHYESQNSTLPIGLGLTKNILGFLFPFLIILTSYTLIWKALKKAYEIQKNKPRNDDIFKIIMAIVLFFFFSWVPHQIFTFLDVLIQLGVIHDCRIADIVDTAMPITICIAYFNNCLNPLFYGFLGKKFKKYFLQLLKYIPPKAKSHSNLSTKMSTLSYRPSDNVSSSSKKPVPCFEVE
# procedure_summary: Antagonist activity against AT1 receptor in Japanese White rabbit aortic strips assessed as reduction in angiotension-2-induced contractile response after 60 mins by Schild's plot analysis
# cond: read-out: pA2 (converted)
Exercise: for every item that follows, state its recorded Kb.
Number only, in nM; omit the unit.

Kb of CCCc1nc2c(C)cc(C(=O)N[C@H](CO)c3ccccc3)cc2n1Cc1ccc(-c2ccccc2-c2nnn[nH]2)cc1 on Type-1 angiotensin II receptor (Oryctolagus cuniculus)?
7.76

// query: CCCc1nc2c(C)cc(C(=O)N[C@H](CO)c3ccccc3)cc2n1Cc1ccc(-c2ccccc2C(=O)O)cc1
3.98

Check CCCc1nc2c(C)cc(C(=O)NCC(C)c3ccccc3)cc2n1Cc1ccc(-c2ccccc2-c2nnn[nH]2)cc1 (racemic) too.
3.09

Try this compound too: CCCc1nc2c(C)cc(C(=O)N[C@@H](COC)c3ccccc3)cc2n1Cc1ccc(-c2ccccc2-c2nnn[nH]2)cc1
6.92

Continue with CCCc1nc2c(C)cc(C(=O)NCCc3ccccc3)cc2n1Cc1ccc(-c2ccccc2C(=O)O)cc1
8.13

# repeat for CCCc1nc2c(C)cc(C(=O)NC[C@H](C)c3ccccc3)cc2n1Cc1ccc(-c2ccccc2C(=O)O)cc1
5.62

----------
# procedure_summary: Toxicity in Kunming mouse at 1.3 g/kg, po assessed as mortality after 2 weeks
# Assay type: organism-based
# cond: in vivo, 1300 mg/kg
property: mortality at 336 h (%)
Form entry: value (%) — number only.

Any idea what its mortality at 336 h is? The compound is CCCCc1nc(Cl)c(CO)n1Cc1ccc(-c2ccccc2-c2nn[nH]n2)cc1
10

----------
# Test system: Mus musculus
# procedure_summary: Hepatotoxicity in Kunming mouse assessed as serum AST level at 2 g/kg by automatic biochemical analyser (reference value: 133.44 +/- […] U/T)
# Assay type: toxicity, organism-based
# cond: in vivo, 2000 mg/kg
property: Activity (U/L)
Give just the number in U/L; leave the unit off.

I would be grateful if you could share the reported Activity for CCCc1nc2c(C)cc(C(=O)NC[C@H](C)c3ccccc3)cc2n1Cc1ccc(-c2ccccc2-c2nnn[nH]2)cc1 .
217

----------
Kindly state mortality at 336 h for each of the entries shown.
# procedure_summary: Toxicity in Kunming mouse at 2 g/kg, po assessed as mortality after 2 weeks
# Type: organism-based
# cond: in vivo, 2000 mg/kg
The reply should contain only the number, in %.

Record request: mortality at 336 h value, item CCCCc1nc(Cl)c(CO)n1Cc1ccc(-c2ccccc2-c2nn[nH]n2)cc1 [LOSARTAN]
90

Now try CCCc1nc2c(C)cc(C(=O)NC[C@H](C)c3ccccc3)cc2n1Cc1ccc(-c2ccccc2-c2nnn[nH]2)cc1 .
0

----------
# procedure_summary: Toxicity in orally dosed Kunming mouse assessed as mortality after 2 weeks
# Type: organism-based
# cond: in vivo, po
Kindly supply the reported LD50 at 336 h values for the records listed here.

Quick one: LD50 at 336 h for CCCc1nc2c(C)cc(C(=O)NC[C@H](C)c3ccccc3)cc2n1Cc1ccc(-c2ccccc2-c2nnn[nH]2)cc1 ?
3640 mg/kg

What would you report for CCCCc1nc(Cl)c(CO)n1Cc1ccc(-c2ccccc2-c2nn[nH]n2)cc1 ?
1570 mg/kg

----------
# tgt: Type-1 angiotensin II receptor (Oryctolagus cuniculus)
# Sequence (P34976 whole entry): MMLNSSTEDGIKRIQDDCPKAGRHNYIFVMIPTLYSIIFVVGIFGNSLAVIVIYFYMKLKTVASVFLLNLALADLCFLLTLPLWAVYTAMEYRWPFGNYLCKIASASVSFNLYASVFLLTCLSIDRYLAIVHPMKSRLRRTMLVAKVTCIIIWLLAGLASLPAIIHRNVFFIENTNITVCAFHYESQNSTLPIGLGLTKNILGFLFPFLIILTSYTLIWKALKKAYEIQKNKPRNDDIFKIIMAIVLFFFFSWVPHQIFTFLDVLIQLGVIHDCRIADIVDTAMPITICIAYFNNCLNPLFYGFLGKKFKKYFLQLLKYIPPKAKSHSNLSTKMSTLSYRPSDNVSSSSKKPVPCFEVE
# procedure_summary: Antagonist activity against AT1 receptor in Japanese White rabbit aortic strips assessed as reduction in angiotension-2-induced contractile response after 60 mins by Schild's plot analysis
# cond: read-out: pA2 (converted)
property: Kb (nM)
Give just the number in nM; leave the unit off.

Sample CCCc1nc2c(C)cc(C(=O)N[C@H](COC)c3ccccc3)cc2n1Cc1ccc(-c2ccccc2C(=O)O)cc1 — what was its Kb?
3.63

Next compound: CCCc1nc2c(C)cc(C(=O)NC[C@@H](C)c3ccccc3)cc2n1Cc1ccc(-c2ccccc2-c2nnn[nH]2)cc1
26.3

Then CCCc1nc2c(C)cc(C(=O)N[C@@H](COC)c3ccccc3)cc2n1Cc1ccc(-c2ccccc2C(=O)O)cc1 ?
3.16

Thanks! And CCCc1nc2c(C)cc(C(=O)N[C@@H](CO)c3ccccc3)cc2n1Cc1ccc(-c2ccccc2C(=O)O)cc1 ?
7.41

----------
# tgt: Type-1 angiotensin II receptor (Homo sapiens, UniProt P30556)
# Sequence (P30556 whole entry): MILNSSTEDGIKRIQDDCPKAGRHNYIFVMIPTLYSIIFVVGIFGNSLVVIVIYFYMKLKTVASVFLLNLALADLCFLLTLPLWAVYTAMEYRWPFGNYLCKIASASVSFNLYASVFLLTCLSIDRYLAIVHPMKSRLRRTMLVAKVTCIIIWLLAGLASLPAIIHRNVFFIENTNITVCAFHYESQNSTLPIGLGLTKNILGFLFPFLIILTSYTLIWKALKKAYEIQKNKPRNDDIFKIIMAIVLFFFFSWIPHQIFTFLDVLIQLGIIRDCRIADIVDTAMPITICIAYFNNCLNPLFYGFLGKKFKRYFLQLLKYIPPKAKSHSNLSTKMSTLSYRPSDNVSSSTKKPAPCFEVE
# procedure_summary: Displacement of [125I]Sar1Ile8-Ang2 from human AT1 receptor expressed in CHO-K1 cell membranes after 180 mins
Assignment: determine reported IC50 for the given molecules.
Please state the figure in nM; there is no need to write the unit.

Consider the molecule CCSc1nc2c(C)cc(C(=O)NC[C@@H](C)c3ccccc3)cc2n1Cc1ccc(-c2ccccc2C(=O)O)cc1 and give its measured IC50.
788

Ok, now CSc1nc2c(C)cc(C(=O)NC[C@H](C)c3ccccc3)cc2n1Cc1ccc(-c2ccccc2C(=O)O)cc1
609

Note, next up: CCSc1nc2c(C)cc(C(=O)NC[C@H](C)c3ccccc3)cc2n1Cc1ccc(-c2ccccc2C(=O)O)cc1
487

Query CSc1nc2c(C)cc(C(=O)NC[C@H](C)c3ccccc3)cc2n1Cc1ccc(-c2ccccc2-c2nnn[nH]2)cc1 next
671

What do we get for CCOc1nc2c(C)cc(C(=O)NC[C@@H](C)c3ccccc3)cc2n1Cc1ccc(-c2ccccc2C(=O)O)cc1 ?
57.4

// query: CCCc1nc2c(C)cc(C(=O)N[C@H](COC)c3ccccc3)cc2n1Cc1ccc(-c2ccccc2C(=O)O)cc1
57.9

Please give the result for CCCc1nc2c(C)cc(C(=O)N[C@H](COC)c3ccccc3)cc2n1Cc1ccc(-c2ccccc2-c2nnn[nH]2)cc1 too.
157

Again, but for CCOc1nc2c(C)cc(C(=O)NC[C@H](C)c3ccccc3)cc2n1Cc1ccc(-c2ccccc2-c2nnn[nH]2)cc1
3.5

Next up: CCOc1nc2c(C)cc(C(=O)NC[C@H](C)c3ccccc3)cc2n1Cc1ccc(-c2ccccc2C(=O)O)cc1
7.3

Could you do the same for CCCc1nc2c(C)cc(C(=O)N[C@@H](CO)c3ccccc3)cc2n1Cc1ccc(-c2ccccc2-c2nnn[nH]2)cc1 , please?
293

Same read-out for CCCc1nc2c(C)cc(C(=O)N[C@@H](COC)c3ccccc3)cc2n1Cc1ccc(-c2ccccc2C(=O)O)cc1 ?
70

Could you do the same for CCCc1nc2c(C)cc(C(=O)NC[C@@H](O)c3ccccc3)cc2n1Cc1ccc(-c2ccccc2C(=O)O)cc1 , please?
104

Now consider CCCc1nc2c(C)cc(C(=O)N[C@H](C)c3ccccc3)cc2n1Cc1ccc(-c2ccccc2C(=O)O)cc1 .
90.5

Param item: CCCc1nc2c(C)cc(C(=O)NC[C@@H](O)c3ccccc3)cc2n1Cc1ccc(-c2ccccc2-c2nnn[nH]2)cc1
106

Another molecule: CSc1nc2c(C)cc(C(=O)NC[C@@H](C)c3ccccc3)cc2n1Cc1ccc(-c2ccccc2C(=O)O)cc1
1370

Proceed to CCCc1nc2c(C)cc(C(=S)NC[C@@H](C)c3ccccc3)cc2n1Cc1ccc(-c2ccccc2-c2nnn[nH]2)cc1
343
